- Study Target: CYP2C9 (Homo sapiens, UniProt P11712)
- Sequence (P11712 whole entry): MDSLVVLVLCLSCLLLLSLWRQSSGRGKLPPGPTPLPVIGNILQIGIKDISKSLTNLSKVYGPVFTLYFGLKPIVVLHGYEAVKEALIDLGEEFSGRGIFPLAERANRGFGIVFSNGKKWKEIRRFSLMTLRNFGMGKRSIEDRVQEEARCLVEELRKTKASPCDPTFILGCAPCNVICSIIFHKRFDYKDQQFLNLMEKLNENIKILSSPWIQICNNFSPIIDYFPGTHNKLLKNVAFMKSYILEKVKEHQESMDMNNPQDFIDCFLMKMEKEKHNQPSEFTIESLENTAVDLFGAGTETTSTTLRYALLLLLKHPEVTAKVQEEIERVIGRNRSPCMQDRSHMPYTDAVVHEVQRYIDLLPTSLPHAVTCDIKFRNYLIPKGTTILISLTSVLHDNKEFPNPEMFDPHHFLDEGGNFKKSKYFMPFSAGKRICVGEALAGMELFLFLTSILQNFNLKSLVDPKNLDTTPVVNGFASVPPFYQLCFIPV
- Assay Summary: Reversible CYP inhibition in human liver microsomes
- Condition Description: human, microsomes, pH 7.4, Percent of Control Activity, CYP 2C9, 200 µM, Zero-Minute Preincubation
Outcome Measure: activity at 200 µM (%)
Answers are plain numbers, in %.

Inquiry: Using known records, supply activity at 200 µM for COc1cccc2[nH]c(C(=O)N[C@@H](CC(C)C)C(=O)N[C@@H](C[C@@H]3CCNC3=O)C(=O)CO)cc12
Reply text: 74.3

###

- Study Target: CYP1A2 (Homo sapiens)
- Sequence (P05177 whole entry): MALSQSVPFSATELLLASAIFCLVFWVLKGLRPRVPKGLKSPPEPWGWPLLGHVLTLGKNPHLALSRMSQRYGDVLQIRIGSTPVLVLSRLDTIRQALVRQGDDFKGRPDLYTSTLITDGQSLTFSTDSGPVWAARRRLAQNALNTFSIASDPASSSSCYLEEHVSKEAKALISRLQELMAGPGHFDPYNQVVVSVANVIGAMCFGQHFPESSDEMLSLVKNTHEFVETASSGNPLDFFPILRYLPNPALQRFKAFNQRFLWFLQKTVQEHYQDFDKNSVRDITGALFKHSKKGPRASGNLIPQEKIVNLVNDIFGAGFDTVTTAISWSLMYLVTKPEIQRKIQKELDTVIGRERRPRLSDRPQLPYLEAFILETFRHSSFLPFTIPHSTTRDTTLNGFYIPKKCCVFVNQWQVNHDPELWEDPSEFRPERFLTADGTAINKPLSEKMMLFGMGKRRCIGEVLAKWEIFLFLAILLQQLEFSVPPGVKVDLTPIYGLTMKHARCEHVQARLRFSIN
- Assay Summary: Reversible CYP inhibition in human liver microsomes
- Condition Description: human, microsomes, pH 7.4
Outcome Measure: IC50

Inquiry: Using known records, supply IC50 for COc1cccc2[nH]c(C(=O)N[C@@H](CC(C)C)C(=O)N[C@@H](C[C@@H]3CCNC3=O)C(=O)CO)cc12 [PF-00835231]
Reply text: > 200 µM
